Origin of the recorded values: patent US20110275684A1

melting point by entry:
MEASURE_NAME: melting point

1. CCC(C(N)=O)n1nnc2ccc(Br)cc21 (stereo not shown) [Compound 3, 2-(6-Bromo-benzotriazol-1-yl)-butyramide] : 181.2 to 182.1 °C
2. CC[C@H](C(N)=O)n1nnc2cc(Br)ccc21 : 206.2 to 207.3 °C
3. Fc1cc(F)c2nnn(Cc3ncc[nH]3)c2c1 : 166 to 167.5 °C
4. Brc1ccc2c(c1)nnn2Cc1c[nH]cn1 : 178.3 to 180.8 °C
5. NC(=O)Cn1nnc2cc(Br)ccc21 [Compound 13, 2-(5-Bromo-benzotriazol-1-yl)-acetamide] : 221.5 to 222.5 °C
6. CC(C)[C@@H](C(N)=O)n1nnc2ccccc21 : 164 to 165.7 °C
7. CC[C@@H](C(N)=O)n1nnc2cc(Cl)ccc21 : 175.5 to 177.5 °C
8. CC[C@@H](C(N)=O)n1nnc2c(Cl)cccc21 : 153 to 154.5 °C
9. CC(C)CC(C(N)=O)n1nnc2ccccc21 (stereo not shown) : 177.5 to 178.8 °C
10. CC[C@H](C(N)=O)n1nnc2c(F)cccc21 : 162.5 to 163.7 °C
11. CS(=O)(=O)c1ccc2nnn(CC(N)=O)c2c1 : 241.8 to 242.7 °C
12. c1ccc2c(c1)nnn2Cc1c[nH]cn1 : 137.8 to 138.9 °C
13. CCC(C(N)=O)n1nnc2cc(F)cc(F)c21 (stereo not shown) : 155 to 156.3 °C
14. CC(C(N)=O)n1nnc2cc(F)ccc21 (stereo not shown) : 138.6 to 140.1 °C
15. NC(=O)Cn1nnc2cc(F)cc(F)c21 : 236.5 to 238 °C
16. NC(=O)Cn1nnc2c(F)cc(F)cc21 : 247.8 to 248.9 °C
17. CC(C(N)=O)n1nnc2ccc(F)cc21 (stereo not shown) : 156.8 to 158 °C
18. CC[C@@H](C(N)=O)n1nnc2c(F)cccc21 : 163.9 to 165.1 °C
19. CCC(C(N)=O)n1nnc2c(F)cc(F)cc21 (stereo not shown) : 199 to 200.5 °C
